Data origin, for the record: ChEMBL document CHEMBL4177652

The entries below are paired with their reported EC50.
assay: Growth inhibition of rat ASK cells after 72 hrs by SRB assay; assay type: functional; conditions: read-out: ED50 (the source's name)
The answer is to be given in µM; state only the numeric part.

[[record]]
molsmiles = "CC(=O)O[C@@H]1CC[C@]2(C)[C@H](CC[C@@]3(CO3)[C@H]2/C=C/C2=CCOC2=O)[C@]1(C)CO[Si](C)(C)C(C)(C)C"
readout = "EC50"
recordednumber = 22.4

[[record]]
molsmiles = "C=C1CC[C@@H]2[C@](C)(CO[Si](C(C)C)(C(C)C)C(C)C)[C@H](OC(C)=O)CC[C@@]2(C)[C@@H]1/C=C/C1=CCOC1=O"
readout = "EC50"
recordednumber = 29.4


As a next step, examine the molecule that follows.
Quick one: EC50 for C=C1CC[C@@H]2[C@](C)(COC(C)=O)[C@H](OC(C)=O)CC[C@@]2(C)[C@@H]1/C=C/C1=CCOC1=O ?
42.5
